Experiment: E. coli acrAB mutant growth effects, primary screen, E. coli filamentation inducers, strain DRC39, OD650, 48 h (AID 1179);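 also: screen aims at cell division blockers that make cells filament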
Conditions: E. coli DRC39 delta-acrAB growth, higher = more signal, called active from +8 up or from −8 down
measurement_name: z-score
The answer should be a number; do not append a unit.

Solved cases (4 shown):
CC1CC/C=C\[C@H]2OC34C=CCN(C(C)C)C(=O)[C@H]3N(C(C)CO)C(=O)[C@@H]4C2C(=O)O1 (stereo partly drawn): 0.553
O=C1O[C@H](c2ccccc2)[C@H](c2ccccc2)N2[C@H]1[C@@H](C(=O)O)[C@]1(C(=O)Nc3ccc(C#CC4(O)CCCCCC4)cc31)[C@H]2c1ccccc1OCCO: 0.732
C=C[C@H](OC)[C@@H](O)c1ccc(OC)c(O)c1: 0.905
COc1ccc(CCNC(=O)[C@@H]2c3ccccc3C(=O)N(C(C)C)[C@H]2c2ccc(CO)cc2)cc1: 0.246

Please find the next compound below.
[ask] Consider the compound `C=CCNC(=O)[C@@H]1[C@H]2C(=O)O[C@H](c3ccccc3)[C@H](c3ccccc3)N2[C@H](c2ccc(O)cc2)[C@@]12C(=O)N(C(=O)OCCOC)c1ccc(C#CCC(C(=O)OC)C(=O)OC)cc12` . State its measured z-score.
[reply] 0.666

====

Experiment: inhibitors of hydroxyurea-induced Chk1 phosphorylation, primary screen, imaging, HeLa, phospho-Chk1 nuclear intensity (AID 1187); also: test concentration not given here
Details: hydroxyurea-induced phospho-Chk1 immunofluorescence imaging, higher = more signal
z-score values, listed per item
Please reply with the number alone, leaving off any unit.

Example cases with answers are listed next.
C=CC[C@@]1(C(=O)NCCCOC)N=C(c2ccc(OCCCO)cc2)O[C@@H]1c1ccccc1CN=[N+]=[N-]: -0.721
C=CCNC(=O)[C@H]1[C@@H]2C(=O)O[C@@H](c3ccccc3)[C@@H](c3ccccc3)N2[C@@H](c2ccc(OCCO)cc2)[C@]12C(=O)N(C(=O)OCCOC)c1ccc(C#CCC(C(=O)OC)C(=O)OC)cc12: 0.475
COC(=O)[C@H]1N=C(c2ccc(OCCCO)cc2)O[C@H]1c1ccccc1N=[N+]=[N-]: 0.193

Consider the additional compound presented here.
[ask] Name the recorded z-score of the item O=C1C2C=CC(C(O)C3CC=CCC3)N(Nc3ccc([N+](=O)[O-])cc3)C2C(=O)N1c1ccccc1 (centres undefined) in your answer.
[reply] -0.101

====

Test: small-molecule binders of probe aNOTCH3, primary screen, biochemical, small-molecule microarray, 635/667 nm fluorescence (AID 1120);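 also: probe is a biotin-tagged antibody raised against NOTCH3 rather than NOTCH3 protein; score merges spot fluorescence near 667 nm with spot signal to noise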
Conditions: higher = more signal
Respond with Yes for composite z-score values of 0.2 and above, No for values below.

O=C1c2ccccc2[C@@]2(Cc3ccccc3N(CC(F)(F)F)C2=O)[C@H](c2ccc(CO)cc2)N1Cc1ccccc1: No

[ask] Given the entry `COC(=O)[C@@]1(Cc2ccccc2)[C@H]2c3cc(C(=O)N(C)C)n(Cc4nc5ccccc5[nH]4)c3C[C@H]2CN1C(=O)c1ccccc1` , answer whether its composite z-score meets or surpasses 0.2.
[reply] Yes

[ask] Would you say `Cc1ccc(S[C@]2(C(=O)NC(C)C)CC(=O)N(Cc3ccccc3)[C@@H]2c2ccc(CO)cc2)cc1` shows composite z-score at minimum 0.2?
[reply] No

[ask] Identify whether the reported composite z-score of the following compound is 0.2 or greater: `COCCOC(=O)N1C(=O)[C@@]2(c3cc(C#CCNC(N)=O)ccc31)[C@H](C(=O)Nc1nc3ccccc3s1)[C@H]1C(=O)O[C@H](c3ccccc3)[C@H](c3ccccc3)N1[C@@H]2c1ccc(O)cc1`
[reply] No

====

Assay: HepG2 cell viability effects, profiling panel, calcein-AM fluorescence, 48 h, basal (AID 1164); also: test concentration not given here
Conditions: higher = more signal
// label = condition met if z-score is not less than -0.5, otherwise condition not met

COc1ccc(-c2cc3c(c(CCc4ccccc4)n2)[Si](C(C)C)(C(C)C)O[C@H]3c2ccccc2)cn1: condition met

[ask] Is it the case that `C=CC[C@]12N=C(c3ccc(OCCCO)cc3)O[C@H]1c1ccccc1N(CCC)C2=O` has z-score reaching or exceeding -0.5?
[reply] condition met

[ask] Could you tell me if the measured z-score of `O=C(N1CCOCC1)[C@]1(CCS(=O)(=O)c2ccccc2)N=C(c2ccc(OCCCO)cc2)O[C@@H]1c1ccccc1` reaches -0.5 or more?
[reply] condition met

[ask] Check if z-score >= -0.5 (inclusive). Item: `Cc1ccc(S[C@]2(C(=O)NCCN3CCOCC3)CC(=O)N(C(C)C)[C@@H]2c2ccc(CO)cc2I)cc1`
[reply] condition met

====

Molecular target: Dickkopf-related protein 1 (Homo sapiens) (UniProt O94907)
Sequence (O94907 whole entry, looked up): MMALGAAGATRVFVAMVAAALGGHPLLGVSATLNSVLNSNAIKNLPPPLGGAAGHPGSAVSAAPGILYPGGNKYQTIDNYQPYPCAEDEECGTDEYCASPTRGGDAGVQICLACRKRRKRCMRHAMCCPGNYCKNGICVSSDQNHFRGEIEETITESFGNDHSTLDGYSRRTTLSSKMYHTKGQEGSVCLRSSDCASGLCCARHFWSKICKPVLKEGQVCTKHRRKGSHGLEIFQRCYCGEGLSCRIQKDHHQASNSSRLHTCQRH
Assay: DKK1 binders on small-molecule microarrays, primary screen, biochemical, small-molecule microarray, 635 nm fluorescence scan (AID 1106);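 also: score merges emission near 667 nm with signal to noise over three replicate slides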
Conditions: DKK1 binding, higher = more signal
Returns one of True or False; True when composite z-score is >= 0.4.

Some entries whose results are on file:
C=CCN1C(=O)[C@@]2(O[C@@H](CCO)[C@H]([Si](C)(C)c3ccc(OC)cc3)[C@H]2C)c2cc(N3CCCCC3=O)ccc21: False
COc1ccc(C(=O)Nc2ccc(CN3C(=O)[C@@]4(O[C@@H](CC(=O)N(CCO)Cc5ccccc5)[C@H]([Si](C)(C)c5ccc(OC)cc5)[C@H]4C)c4ccccc43)cc2)cc1: True
COC(=O)[C@@]1(Cc2ccc(F)cc2)[C@H]2c3cc(C(=O)N(C)C)n(Cc4ccsc4Br)c3C[C@H]2CN1C(=O)c1ccccc1: False

[ask] composite z-score >= 0.4 for `C=C(C(=O)CC[C@@H](OC(=O)c1cccnc1)c1cccc(OCCO)c1)C(C)C` ?
[reply] False

[ask] // inclusive: composite z-score at least 0.4? input: `CCCC[C@@H](O)C1=C(C)Cn2c(=O)n(-c3ccccc3)c(=O)n2[C@H]1CO`
[reply] False

[ask] Check if composite z-score >= 0.4 (inclusive). Item: `CCOC(=O)C1=CC[C@@H](c2ccccc2)N(S(=O)(=O)c2ccc(C)cc2)[C@@H]1C#N`
[reply] False

[ask] Has `COC(=O)C[C@H]1O[C@]2(C(=O)N(C)c3ccccc32)[C@@H](C)[C@@H]1[Si](C)(C)c1ccccc1` a recorded composite z-score greater than or equal to 0.4?
[reply] True

[ask] composite z-score >= 0.4 for `COc1ccc([Si](C)(C)[C@H]2[C@H](CC(=O)N3CCC[C@H]3CO)O[C@@]3(C(=O)N(C)c4c(Br)cc(C)cc43)[C@@H]2C)cc1` ?
[reply] True

[ask] Check the entry `C=CCNC(=O)[C@@H]1[C@H]2C(=O)O[C@H](c3ccccc3)[C@H](c3ccccc3)N2[C@H](c2ccc(O)cc2)[C@@]12C(=O)Nc1ccc(C#CC3=CCCCC3)cc12` : does composite z-score equal or exceed 0.4?
[reply] True

[ask] Could you verify whether the entry `COC(=O)[C@@]1(Cc2ccccc2)[C@H]2c3cc(C(=O)N(C)C)n(Cc4ccc(Cl)c(C(F)(F)F)c4)c3C[C@H]2CN1C(=O)c1ccccc1` shows composite z-score of no less than 0.4?
[reply] False

====

Test system: Neuregulin-1 EGF-like domain
Test: binders of neuregulin-1 EGF-like domain, primary screen, biochemical, small-molecule microarray, 635 nm fluorescence (AID 1081);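 also: binding of the protein to compounds printed on small-molecule microarray slides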
Details: small-molecule microarray binding, higher = more signal
In this section, each of the molecules is paired with its reported composite z-score.
Write the number on its own, no unit after it.

COc1ccc([Si](C)(C)[C@@H]2[C@@H](CC(=O)N3Cc4ccccc4C[C@H]3CO)O[C@]3(C(=O)N(Cc4ccc(I)cc4)c4ccccc43)[C@H]2C)cc1: 0.909
[N-]=[N+]=Nc1ccccc1C[C@@]1(C(=O)NCc2ccccc2)N=C(c2ccc(OCCCO)cc2)O[C@@H]1c1ccccc1: 0.747

[ask] Quote composite z-score reported for `CCOC(=O)C[C@H]1[C@H](OC(=O)c2ccccc2-c2ccccc2)[C@@H](NC(=O)CC(C)C)c2cc(OCCCO)ccc2N1C(=O)c1ccccc1` please.
[reply] 0.606

[ask] State its composite z-score for this molecule: `CC(C)(C)OC(=O)CC[C@@]1(C(N)=O)N=C(c2ccc(OCCCO)cc2)O[C@@H]1c1ccccc1CN=[N+]=[N-]`
[reply] 1.44

[ask] Please list composite z-score recorded for the molecule `COc1ccc([Si](C)(C)[C@H]2[C@H](CC(=O)N3CCC[C@H]3CO)O[C@@]3(C(=O)N(Cc4cccc(N5CCCCC5=O)c4)c4ccccc43)[C@@H]2C)cc1`
[reply] 1.14

[ask] Give the reported composite z-score for this molecule. `CC(C)(C)OC(=O)CC[C@]1(C(N)=O)N=C(c2ccc(OCCCO)cc2)O[C@H]1c1ccccc1N=[N+]=[N-]`
[reply] 1.48

[ask] In one line, give reported composite z-score of the entry O=C1OCC=C[C@H]2OC34C=CCN(Cn5nnc6ccccc65)C(=O)[C@H]3N(CCO)C(=O)[C@@H]4[C@@H]12 (some centres undefined) .
[reply] 0.579

[ask] Using the record for `Cc1ccc(S[C@]2(C(=O)NCC(C)C)CC(=O)N(C(C)C)[C@@H]2c2ccc(CO)cc2I)cc1` , state its measured composite z-score.
[reply] -0.569

[ask] Please give the documented composite z-score of `Cc1ccc(N2C(=O)c3ccccc3[C@@H](C(=O)NCCN3CCOCC3)[C@@H]2c2ccc(CO)cc2)nc1`
[reply] -0.297

[ask] Check the records and state composite z-score for `[N-]=[N+]=Nc1ccccc1C[C@]1(C(N)=O)COC(c2ccc(OCCCO)cc2)=N1`
[reply] 1.34

[ask] Tell me its composite z-score given `COC(=O)[C@@]1(Cc2ccc(F)cc2)[C@H]2c3cc(C(=O)N4CCCC4)n(CCSCCO)c3C[C@H]2CN1C(=O)c1ccccc1` as the entry.
[reply] 1.32

[ask] Specify measured composite z-score for `Cc1ccc(S[C@]2(C(=O)NC(C)C)CC(=O)N(Cc3ccccc3)[C@@H]2c2ccc(CO)cc2I)cc1` .
[reply] 0.478

[ask] For `COC(=O)[C@@]1(Cc2ccc(F)cc2)[C@H]2c3cc(C(=O)N4CCCC4)n(Cc4ccc(OC(F)(F)F)cc4)c3C[C@H]2CN1C(=O)c1ccccc1` , write its composite z-score.
[reply] 0.71

[ask] Specify composite z-score for `C=CCOC(=O)[C@H]1[C@@H]2C(=O)O[C@@H](c3ccccc3)[C@@H](c3ccccc3)N2[C@@H](c2ccc(OCCOC(=O)[C@@H]3C[C@@H]4C(=O)N[C@@H](Cc5ccccc5)C(=O)N4[C@@H]3c3ccc(O)cc3)cc2)[C@]12C(=O)Nc1ccc(I)cc12` and stop.
[reply] 1.08
